# experimental.system: human ether-à-go-go-related gene (hERG) potassium channel (human);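 note: peak tail current of the secondary pulse compared with the same well before compound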
# assay.info: primary screen, population patch clamp on CHO cells stably expressing hERG; higher = less effect of the substance
The campaign covered roughly 310,000 compounds. About 14,000 (4.5%) showed an effect of 50% or more. The effect is printed as a negative number. The full list was thinned out, with strong results kept by preference.
outcome.measure: hERG current change (%, negative = inhibition) at 10uM (%)
Please give a number only; it is taken to be in %.

Field: example entries. Status: answers known.
CCOC(=O)C1(Cc2ccccc2C)CCCN(S(C)(=O)=O)C1 (stereo not shown) = 16.5
CCc1ccc(C(=O)N2CCN(c3ccc(NC(=O)c4cccnc4)cc3)CC2)cc1 = -71.3
CC1(c2nnc(Cc3ccccc3)o2)CC(c2cccc([N+](=O)[O-])c2)=NO1 (stereo not shown) = -7.45
Cc1csc(NC(=O)CS(=O)(=O)c2ccccc2)n1 = -18.1
COc1ccccc1N1CCN(C2CCCN(Cc3ccccc3OCCO)C2)CC1 (stereo not shown) = -25.5

Enquiry: Consider the compound shown here: COc1ccc(N2CCN(C3CCCN(Cc4cccc(C)c4)C3)CC2)cc1 (stereo not shown) What is its recorded hERG current change (%, negative = inhibition) at 10uM?
Return: -32.8

Enquiry: Consider the compound shown here: `COc1ccc(NCc2nnc(SCC(=O)Nc3nc(-c4ccccc4)cs3)n2-c2ccccc2)cc1` What is its recorded hERG current change (%, negative = inhibition) at 10uM?
Return: 13

Enquiry: Consider the compound shown here: COc1ccccc1C1CC(c2ccc(NS(C)(=O)=O)cc2)=NN1S(=O)(=O)c1ccccc1 (stereo not shown) What is its recorded hERG current change (%, negative = inhibition) at 10uM?
Return: -69.6

Enquiry: Consider the compound shown here: `c1ccc(Cc2noc(CN3CCC(CN4CCOCC4)CC3)n2)cc1` What is its recorded hERG current change (%, negative = inhibition) at 10uM?
Return: 4.64

Enquiry: Consider the compound shown here: Cc1[nH]c2ccccc2c1C(=O)C(C)OC(=O)c1ccc(Cl)nc1 (stereo not shown) What is its recorded hERG current change (%, negative = inhibition) at 10uM?
Return: -12.9

* * *

# experimental.system: human ether-à-go-go-related gene (hERG) potassium channel (human);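 note: peak tail current of the secondary pulse compared with the same well before compound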
# assay.info: primary screen, population patch clamp on CHO cells stably expressing hERG; higher = less effect of the substance
The whole screen tested about 310,000 compounds, of which about 14,000 (4.5%) showed an effect of 50% or more. Effects have a minus sign here. The list comes from a sample in which strong results are over-represented; it also holds close analogues and randomly drawn compounds.
This listing pairs compounds with measured hERG current change (%, negative = inhibition) at 10uM.
Please give a number only; it is taken to be in %.

O=C(Nc1ccncc1)c1cc(S(=O)(=O)N2CCOCC2)ccc1Cl = -46.6
CS(=O)(=O)Nc1ccc(C(=O)Nc2ccc(S(=O)(=O)N3CCCCC3)cc2)cc1 = -13.8
O=C(Nc1nccs1)C1CCN(S(=O)(=O)c2ccc(Cl)c(C(F)(F)F)c2)CC1 = -0.668

Enquiry: Consider the compound shown here: `NS(=O)(=O)c1cc(C(=O)O)c(NCc2ccco2)cc1Cl` What is its recorded hERG current change (%, negative = inhibition) at 10uM?
Return: 14.7

Enquiry: Consider the compound shown here: `CCN(CC)S(=O)(=O)c1ccc(N2CCCC2)c(NC(=O)c2ccncc2)c1` What is its recorded hERG current change (%, negative = inhibition) at 10uM?
Return: -22.6

* * *

# experimental.system: human ether-à-go-go-related gene (hERG) potassium channel (human, UniProt Q12809);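 note: peak tail current of the secondary pulse compared with the same well before compound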
# Sequence (Q12809 whole entry, looked up): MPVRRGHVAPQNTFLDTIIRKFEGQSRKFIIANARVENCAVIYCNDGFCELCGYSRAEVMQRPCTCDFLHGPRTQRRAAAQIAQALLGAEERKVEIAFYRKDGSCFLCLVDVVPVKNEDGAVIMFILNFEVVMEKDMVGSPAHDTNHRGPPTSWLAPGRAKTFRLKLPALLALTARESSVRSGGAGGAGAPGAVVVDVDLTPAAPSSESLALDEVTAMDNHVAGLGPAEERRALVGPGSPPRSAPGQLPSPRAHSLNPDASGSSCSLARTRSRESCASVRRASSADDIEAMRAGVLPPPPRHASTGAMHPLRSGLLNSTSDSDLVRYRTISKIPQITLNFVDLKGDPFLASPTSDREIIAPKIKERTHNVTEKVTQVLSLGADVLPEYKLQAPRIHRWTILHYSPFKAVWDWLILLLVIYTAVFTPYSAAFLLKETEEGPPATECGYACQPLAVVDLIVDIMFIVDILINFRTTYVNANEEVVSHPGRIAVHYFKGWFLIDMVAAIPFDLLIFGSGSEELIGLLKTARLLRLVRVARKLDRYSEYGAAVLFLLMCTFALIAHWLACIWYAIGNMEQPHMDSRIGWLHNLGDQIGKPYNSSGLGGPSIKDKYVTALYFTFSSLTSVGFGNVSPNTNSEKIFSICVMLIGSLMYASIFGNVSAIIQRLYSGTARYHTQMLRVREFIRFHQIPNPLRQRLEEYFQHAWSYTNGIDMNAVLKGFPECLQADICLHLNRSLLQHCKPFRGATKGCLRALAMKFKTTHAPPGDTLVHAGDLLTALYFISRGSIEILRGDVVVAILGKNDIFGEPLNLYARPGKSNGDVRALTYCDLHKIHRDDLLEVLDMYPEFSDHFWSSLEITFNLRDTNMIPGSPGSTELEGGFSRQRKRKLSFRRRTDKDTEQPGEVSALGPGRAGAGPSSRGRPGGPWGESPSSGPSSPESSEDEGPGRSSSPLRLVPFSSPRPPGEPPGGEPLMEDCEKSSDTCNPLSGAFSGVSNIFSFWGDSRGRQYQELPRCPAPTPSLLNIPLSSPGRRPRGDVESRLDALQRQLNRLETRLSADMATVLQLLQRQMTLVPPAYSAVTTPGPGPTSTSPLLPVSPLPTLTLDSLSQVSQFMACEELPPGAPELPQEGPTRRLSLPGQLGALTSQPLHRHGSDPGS
# assay.info: primary screen, population patch clamp on CHO cells stably expressing hERG; higher = less effect of the substance
Among all 310,000 compounds or so, about 14,000 (4.5%) showed an effect of 50% or more. The effect is printed as a negative number. The sample as a whole holds a higher share of strong results than the screen did.
This listing pairs compounds with measured hERG current change (%, negative = inhibition) at 10uM.
Please give a number only; it is taken to be in %.

Field: example entries. Status: answers known.
O=C(Nc1ccc(Cl)cc1F)c1cc(S(=O)(=O)N2CCCCC2)ccc1F = -0.146
O=C(CC(c1ccccc1)c1cc(Br)ccc1O)NCCCN1CCOCC1 (stereo not drawn) = -31.3
CNC(=O)Nc1ccc(C2SCCS2)cc1 = 7.02
O=C(NCCCN1CCOCC1)c1cc(Cl)ccc1OCc1ccccc1 = -55.7
COc1ccc(CCNC(=O)C2CCN(C(=O)c3ccc(Cl)cc3)CC2)cc1 = -12.8
O=C(NCCc1ccccc1)C1CCN(C(=O)c2ccc([N+](=O)[O-])cc2)CC1 = -63.2
CCc1ccc(C(=O)Nc2cc3c(cc2Cl)OCCCO3)cc1 = 23.5
Cc1ccc(CSCc2ccc(C(=O)NC3CCCC3)o2)cc1 = -18.2

Enquiry: Consider the compound shown here: `Cn1c(=O)c(=O)n(C)c2cc(N3CCOCC3)c(NS(=O)(=O)c3ccc([N+](=O)[O-])cc3)cc21` What is its recorded hERG current change (%, negative = inhibition) at 10uM?
Return: 2.58

Enquiry: Consider the compound shown here: `CCOc1ccc(NC(=O)CNC(=O)c2ccc([N+](=O)[O-])cc2)cc1` What is its recorded hERG current change (%, negative = inhibition) at 10uM?
Return: -7.46

Enquiry: Consider the compound shown here: `O=C(NCCc1ccccc1)C1CCN(C(=O)c2ccc(F)cc2)CC1` What is its recorded hERG current change (%, negative = inhibition) at 10uM?
Return: -2.25

Enquiry: Consider the compound shown here: `Cn1c(=O)c(=O)n(C)c2cc(N3CCCC3)c(NS(=O)(=O)c3ccc(Cl)cc3)cc21` What is its recorded hERG current change (%, negative = inhibition) at 10uM?
Return: -44.3

Enquiry: Consider the compound shown here: `O=C(NCCCN1CCOCC1)c1cc(Cl)ccc1Cl` What is its recorded hERG current change (%, negative = inhibition) at 10uM?
Return: 11.5

Enquiry: Consider the compound shown here: `Cc1ccc(CSCc2ccc(C(=O)NC3CC3)o2)cc1` What is its recorded hERG current change (%, negative = inhibition) at 10uM?
Return: -5.31

Enquiry: Consider the compound shown here: `Cc1ccc(S(=O)(=O)Nc2cc3c(cc2N2CCOCC2)n(C)c(=O)c(=O)n3C)cc1` What is its recorded hERG current change (%, negative = inhibition) at 10uM?
Return: -9.6

Enquiry: Consider the compound shown here: CC(C)C(NC(=O)c1ccccc1Br)c1ccccc1 (stereo not drawn) What is its recorded hERG current change (%, negative = inhibition) at 10uM?
Return: 11.2

Enquiry: Consider the compound shown here: COc1ccc(CCNC(=O)C2CC(c3cccc([N+](=O)[O-])c3)=NO2)cc1 (stereo not drawn) What is its recorded hERG current change (%, negative = inhibition) at 10uM?
Return: -21.8

Enquiry: Consider the compound shown here: `CC1CCN(CCCNC(=O)c2ccc(CSCc3cccc(Cl)c3)o2)CC1` What is its recorded hERG current change (%, negative = inhibition) at 10uM?
Return: -74.8

Enquiry: Consider the compound shown here: `Cn1c(=O)c(=O)n(C)c2cc(N3CCOCC3)c(NS(=O)(=O)c3ccc(Br)cc3)cc21` What is its recorded hERG current change (%, negative = inhibition) at 10uM?
Return: -27

Enquiry: Consider the compound shown here: `CC(=O)Nc1ccc(C(=O)N/N=C/c2ccncc2)cc1` What is its recorded hERG current change (%, negative = inhibition) at 10uM?
Return: 0.536

Enquiry: Consider the compound shown here: `COc1ccc(OC)c(S(=O)(=O)Nc2cc3c(cc2N2CCCC2)n(C)c(=O)c(=O)n3C)c1` What is its recorded hERG current change (%, negative = inhibition) at 10uM?
Return: -50.7

Enquiry: Consider the compound shown here: `Cc1cccc(CSCc2ccc(C(=O)NC3CCCC3)o2)c1` What is its recorded hERG current change (%, negative = inhibition) at 10uM?
Return: -55.5

Enquiry: Consider the compound shown here: `Cn1c(=O)c(=O)n(C)c2cc(N3CCCCC3)c(NS(=O)(=O)c3ccc([N+](=O)[O-])cc3)cc21` What is its recorded hERG current change (%, negative = inhibition) at 10uM?
Return: -50.6

Enquiry: Consider the compound shown here: `O=C(O)c1cccc(N2C(=O)c3cc4cccc(Br)c4cc3C2=O)c1` What is its recorded hERG current change (%, negative = inhibition) at 10uM?
Return: 18.4

Enquiry: Consider the compound shown here: O=C(CC(c1ccccc1)c1cc(Cl)ccc1O)NCCCN1CCOCC1 (stereo not drawn) What is its recorded hERG current change (%, negative = inhibition) at 10uM?
Return: -50

Enquiry: Consider the compound shown here: `COc1ccc(Cl)cc1C(=O)NCCCN1CCOCC1` What is its recorded hERG current change (%, negative = inhibition) at 10uM?
Return: 9.16

Enquiry: Consider the compound shown here: `CCc1ccc(S(=O)(=O)Nc2cc3c(cc2N2CCOCC2)n(C)c(=O)c(=O)n3C)cc1` What is its recorded hERG current change (%, negative = inhibition) at 10uM?
Return: -32.1

Enquiry: Consider the compound shown here: CC1=C(C(=O)OCc2ccccc2)C(c2ccc(-c3ccccc3)cc2)NC(=O)N1CCCCCC(=O)O (stereo not drawn) What is its recorded hERG current change (%, negative = inhibition) at 10uM?
Return: -2.3

Enquiry: Consider the compound shown here: `Cc1ccc2nsnc2c1S(=O)(=O)N1CCN(CCc2ccccc2)CC1` What is its recorded hERG current change (%, negative = inhibition) at 10uM?
Return: -42.6

Enquiry: Consider the compound shown here: O=C(CC(c1ccccc1)c1cc(Cl)ccc1O)NCCN1CCOCC1 (stereo not drawn) What is its recorded hERG current change (%, negative = inhibition) at 10uM?
Return: -42.1
